- System: NCI-H460 lung
- Procedure Summary: NCI-60 one-dose screen, 48 h
- Measurement Context: 10 µM unless noted
About 83,000 compounds went through this panel and 20% of them were active in at least one assay; those are over-represented in the sample as a whole. The source made the active and inactive calls. Rule for the calls: active = growth percent below 10; inactive = the rest.
Outcome (select one): 1 for active, -1 for inactive

Solved entries:
# Compound, Target Of Assay, Assigned Label
measured = [
    ("O=C(/C=C/c1cccc(Cl)c1)c1ccc(Nc2nc(Nc3ccc(F)cc3)nc(Nc3ccc(Cl)cc3)n2)cc1", "NCI-H460 lung", -1),
    ("CCSC(SCC)c1ccc(Cl)cc1", "NCI-H460 lung", -1),
    ("C#COc1cccc(Nc2c(C#N)cnc3ncc(NC(=O)CCl)cc23)c1", "NCI-H460 lung", -1),
    ("COc1ccc(Nc2ncc(Br)c(NCCCNC(=O)C3CCCC3)n2)cc1", "NCI-H460 lung", -1),
    ("O=C(CN1C(=O)NC2NC(=O)NC21)N/N=C/c1ccccc1[N+](=O)[O-] (centres undefined)", "NCI-H460 lung", -1),
]

Query: Hello, I am checking results. What call was entered for O=C1c2ccc3c4c5ccc(c24)C(=O)N1CCCOCCCCOCCCNCc1ccc(cc1)CNCCCOCCCCOCCCN(C3=O)C5=O ?
Response: 1

Query: Assay result, entry O=C(/C=C/c1cccc(Cl)c1)c1cccc(OCCCOc2cccc(C(=O)/C=C/c3cccc(Cl)c3)c2)c1 — outcome?
Response: -1

Query: Could you kindly confirm the outcome this assay logged for CCOC(=O)c1c(C(=O)c2cn(C)c3ccc(Br)cc23)c(-c2cn(C)c3ccc(Br)cc23)n(NC(=O)OC(C)(C)C)c1C ?
Response: -1

Query: Assay outcome for CC1=C2[C@@H](CC1)[C@]1(C)O[C@@](C(C)C)(C[C@H]1OC(=O)[C@H](C)O)[C@H]2OC(=O)/C=C/c1ccccc1 : what was it?
Response: -1
